Test: probe aInhba binding on compound microarray – biochemical, small-molecule microarray, 635/667 nm fluorescence, primary screen (AID 1148);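 further: score merges 667nm spot fluorescence with signal-to-noise for antibody binding to printed compounds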
Conditions: higher = more signal
QUANTITY_KIND: composite z-score

The compound listed as C=CCC(OC(C)=O)[C@@H]1[C@@H](N(Cc2ccc(-c3cccc(C(F)(F)F)c3)o2)C(=O)Cc2ccc(OC)cc2)c2cc(OCCCO)ccc2N1C(=O)c1ccc2ccccc2c1 (some centres not stated) has a reported composite z-score of -0.128

Please fill in: composite z-score reported for COCCOC(=O)N1C(=O)[C@@]2(c3cc(C#CCCO)ccc31)[C@H](c1ccc(OCCO)cc1)N1[C@H](c3ccccc3)[C@H](c3ccccc3)OC(=O)[C@H]1[C@@H]2C(N)=O = 0.364

composite z-score in this record for O=C1N(CCS(=O)(=O)c2ccccc2)c2ccccc2[C@@H]2OC(c3ccc(OCCCO)cc3)=N[C@]12Cc1ccccc1 : 0.0091

Given item COc1ccc([C@H]2C[C@H]3C(Br)=C[C@@]2(CO)C(=O)[C@]32CO2)cc1 , the value recorded as its composite z-score is -0.0245

composite z-score for CC(C)CN1C(=O)[C@@]2(c3ccc([N+](=O)[O-])cc3)CC(=O)N(C3CCCCC3)[C@@H]2c2ccc(CO)cc21 is -0.237

So for O=C(NC1CC1)[C@@H]1c2ccccc2C(=O)N(C2Cc3ccccc3C2)[C@H]1c1ccc(CO)cc1 , the logged composite z-score turned out to be 0.116

Value of composite z-score reported for the compound CCCCN1CC=CC23O[C@@H]4C=CCOC(=O)[C@@H]4[C@H]2C(=O)N(CCCCCCO)[C@@H]3C1=O (some centres not stated) is -0.249

Reference source for all entries: PubChem BioAssay
